The reported numbers originate from the supplement of paper PMC10126150.

System: ATP;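 note: ATP exposure 15 min at 22 °C before imaging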
Assay: switch fluorescence ratio, 500 uM ATP over buffer (Cy3 cluster intensity, sum of 5 cycles each) (fold (ratio)); higher = stronger signal-on switching upon ATP binding; sequences stand for … in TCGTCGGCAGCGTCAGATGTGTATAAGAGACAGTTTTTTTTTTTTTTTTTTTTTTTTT…TC
Details: aptamer strand: ATP DNA aptamer (quencher-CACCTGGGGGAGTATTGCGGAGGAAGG + anchor), 100 nM annealed; ATP concentration: 500 uM
Record form. Attribute: switch fluorescence ratio. Fill in for each entry.
Answers are plain numbers.

Consider the following illustrative entries.
AGGGGGGACA = 1.02
TTTTCGCTTT = 1.09
CGGGTGTTCG = 1.02
GCAGCCGAGT = 1.01

Lab note: each sequence below needs its switch fluorescence ratio filled in.
1. GGTTTCTGAA
2. TACGAGTTAA
3. CACATTATTC
4. TCATGTTCGG
5. GCGACAGATG
6. AAAAGATTGT
7. TGGGCTTGTT

(A)
1: 0.998; 2: 0.97; 3: 1.04; 4: 1.02; 5: 1.01; 6: 1.04; 7: 0.999

Lab note: each sequence below needs its switch fluorescence ratio filled in.
1. GCGGGACTTG
2. GTGTTCAACG
3. TGTGGAGCTT
4. CTCAATGTAT

(A)
1.03
0.994
1.07
0.989

Lab note: each sequence below needs its switch fluorescence ratio filled in.
1. CGGAGATCGG
2. TTTTGCTGCC
3. ACGAAAAAAG

(A)
1. 0.999
2. 1.03
3. 1.02
